systemTested: VEGF165 (Homo sapiens, UniProt P15692-4 P15692-4:27-191)
Sequence (P15692 other isoform, or with tags, fused parts or gaps): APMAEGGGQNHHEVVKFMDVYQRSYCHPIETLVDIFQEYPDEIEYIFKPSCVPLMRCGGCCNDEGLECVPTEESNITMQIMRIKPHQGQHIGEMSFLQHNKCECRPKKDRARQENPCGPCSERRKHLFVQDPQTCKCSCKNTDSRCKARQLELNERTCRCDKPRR
assayInfo: filter; 37 C
condition: tags: carrier-free, Sf 21 insect cell expressed, R & D Systems; chain copies: 2 (inferred)
pKd: −log10 of the molar value.
Reported pKd values for the following binders.
parameterMeasured: pKd

- GGCGAACCGAUGGAAUUUUUGGACGCUCGCC (ssRNA, 2'-F pyrimidines, 2'-OMe purines except 2'-OH A6, G21) [t2OMe (OH-6,21)]: 10.22
- GACGAUGCGGUAGGAAGAAUUGGAAGCGC (ssRNA, 2'-F pyrimidines, 2'-OMe purines except 2'-OH G10, G22) [t22OMe (OH-10,22)]: 8.40
- GACGAUGCGGUAGGAAGAAUUGGAAGCGC (ssRNA, 2'-F pyrimidines, 2'-OMe purines except 2'-OH G10, A12, G22) [t22OMe (OH-10,12,22)]: 11.00
- GGCGAACCGAUGGAAUUUUUGGACGCUCGCC (ssRNA, 2'-F pyrimidines, 2'-OMe purines except 2'-OH G21) [t2OMe (OH-21)]: 7.70
- GACGAUGCGGUAGGAAGAAUUGGAAGCGC (ssRNA, 2'-F pyrimidines, 2'-OMe purines except 2'-OH G10, A12) [t22OMe (OH-10,12)]: 10.70
- GCGGAAUCAGUGAAUGCUUAUACAUCCGC (ssRNA, 2'-F pyrimidines, 2'-OMe purines except 2'-OH A5, A6) [t44OMe (OH-5,6)]: 10.40
- GGCGAACCGAUGGAAUUUUUGGACGCUCGCC (ssRNA, 2'-F pyrimidines, 2'-OMe purines except 2'-OH A6) [t2OMe (OH-6)]: 9.30
- GACGAUGCGGUAGGAAGAAUUGGAAGCGC (ssRNA, 2'-F pyrimidines, 2'-OMe purines except 2'-OH A12, G22) [t22OMe (OH-12,22)]: 10.05

Where do these numbers come from? They come from patent US20030114404.
